Record form. Attribute: Number of isomers bound. Fill in for each entry.
Molecular target: SARS-CoV-2 NSP3 macrodomain (Mac1) (Severe acute respiratory syndrome coronavirus 2)
Assay type: binding
Conditions: ligand modeling, Mac1 crystal soak
Answer with a number only.

Measured on SARS-CoV-2 NSP3 macrodomain (Mac1) (Severe acute respiratory syndrome coronavirus 2), Cn1cc(CC(CO)Nc2ncnc3[nH]ccc23)cn1 (stereo not shown) has a documented Number of isomers bound of 1

Measured on SARS-CoV-2 NSP3 macrodomain (Mac1) (Severe acute respiratory syndrome coronavirus 2), OCC(O)C1CCCN1c1ncnc2[nH]ccc12 (stereo not shown) has a documented Number of isomers bound of 1

Measured on SARS-CoV-2 NSP3 macrodomain (Mac1) (Severe acute respiratory syndrome coronavirus 2), OCC(CC1CCCO1)Nc1ncnc2[nH]ccc12 (stereo not shown) has a documented Number of isomers bound of 1

Measured on SARS-CoV-2 NSP3 macrodomain (Mac1) (Severe acute respiratory syndrome coronavirus 2), Cc1ccccc1CC(CO)Nc1ncnc2[nH]ccc12 (stereo not shown) has a documented Number of isomers bound of 1

Measured on SARS-CoV-2 NSP3 macrodomain (Mac1) (Severe acute respiratory syndrome coronavirus 2), `OC[C@@H]1C[C@H](F)CN1c1ncnc2[nH]ccc12` has a documented Number of isomers bound of 1

Measured on SARS-CoV-2 NSP3 macrodomain (Mac1) (Severe acute respiratory syndrome coronavirus 2), OCC(Cc1nccs1)Nc1ncnc2[nH]ccc12 (stereo not shown) has a documented Number of isomers bound of 1

Measured on SARS-CoV-2 NSP3 macrodomain (Mac1) (Severe acute respiratory syndrome coronavirus 2), OC1CCCN(c2ncnc3[nH]ccc23)C1 (stereo not shown) has a documented Number of isomers bound of 1

Measured on SARS-CoV-2 NSP3 macrodomain (Mac1) (Severe acute respiratory syndrome coronavirus 2), `O=C(O)C(F)(F)F.OC1([C@H]2CCCN2c2ncnc3[nH]ccc23)Cc2ccccc2C1` has a documented Number of isomers bound of 1

Measured on SARS-CoV-2 NSP3 macrodomain (Mac1) (Severe acute respiratory syndrome coronavirus 2), CC1(C)CCC(CO)N(c2ncnc3[nH]ccc23)C1 (stereo not shown) has a documented Number of isomers bound of 2

Measured on SARS-CoV-2 NSP3 macrodomain (Mac1) (Severe acute respiratory syndrome coronavirus 2), OCC(Cc1cccs1)Nc1ncnc2[nH]ccc12 (stereo not shown) has a documented Number of isomers bound of 1

Measured on SARS-CoV-2 NSP3 macrodomain (Mac1) (Severe acute respiratory syndrome coronavirus 2), `Cc1cc2c(=O)n(CCN3C(=O)c4ccccc4S3(=O)=O)nnc2s1` has a documented Number of isomers bound of 1

Measured on SARS-CoV-2 NSP3 macrodomain (Mac1) (Severe acute respiratory syndrome coronavirus 2), `CC(C)(C)[C@@H]1CCN(c2ncnc3[nH]ccc23)[C@H](CO)C1` has a documented Number of isomers bound of 1

Measured on SARS-CoV-2 NSP3 macrodomain (Mac1) (Severe acute respiratory syndrome coronavirus 2), NC(=O)C1(O)CCN(c2ncnc3[nH]ccc23)C1 (stereo not shown) has a documented Number of isomers bound of 1

Measured on SARS-CoV-2 NSP3 macrodomain (Mac1) (Severe acute respiratory syndrome coronavirus 2), OCC(Cc1ccc(I)cc1)Nc1ncnc2[nH]ccc12 (stereo not shown) has a documented Number of isomers bound of 2

Measured on SARS-CoV-2 NSP3 macrodomain (Mac1) (Severe acute respiratory syndrome coronavirus 2), CCCC(CO)Nc1ncnc2[nH]ccc12 (stereo not shown) has a documented Number of isomers bound of 1

Measured on SARS-CoV-2 NSP3 macrodomain (Mac1) (Severe acute respiratory syndrome coronavirus 2), `O=C(O)C(F)(F)F.O[C@H]1CCC[C@@H]1Nc1ncnc2[nH]ccc12` has a documented Number of isomers bound of 1

Measured on SARS-CoV-2 NSP3 macrodomain (Mac1) (Severe acute respiratory syndrome coronavirus 2), OCC(CC1CCCC1)Nc1ncnc2[nH]ccc12 (stereo not shown) has a documented Number of isomers bound of 1

Measured on SARS-CoV-2 NSP3 macrodomain (Mac1) (Severe acute respiratory syndrome coronavirus 2), OCC(Cc1ccccc1)Nc1ncnc2[nH]ccc12 (stereo not shown) has a documented Number of isomers bound of 2

Measured on SARS-CoV-2 NSP3 macrodomain (Mac1) (Severe acute respiratory syndrome coronavirus 2), OCC(CC1CCCCC1)Nc1ncnc2[nH]ccc12 (stereo not shown) has a documented Number of isomers bound of 1

Measured on SARS-CoV-2 NSP3 macrodomain (Mac1) (Severe acute respiratory syndrome coronavirus 2), OCC1CCCN1c1ncnc2[nH]ccc12 (stereo not shown) has a documented Number of isomers bound of 1

Measured on SARS-CoV-2 NSP3 macrodomain (Mac1) (Severe acute respiratory syndrome coronavirus 2), OCC(Cc1cncs1)Nc1ncnc2[nH]ccc12 (stereo not shown) has a documented Number of isomers bound of 1

Measured on SARS-CoV-2 NSP3 macrodomain (Mac1) (Severe acute respiratory syndrome coronavirus 2), `O=C(O)C(F)(F)F.OC[C@H]1CC2(CN1c1ncnc3[nH]ccc13)OCCO2` has a documented Number of isomers bound of 1

Measured on SARS-CoV-2 NSP3 macrodomain (Mac1) (Severe acute respiratory syndrome coronavirus 2), `O=C(O)C(F)(F)F.OCC12CC(CN1c1ncnc3[nH]ccc13)C2` has a documented Number of isomers bound of 1

Measured on SARS-CoV-2 NSP3 macrodomain (Mac1) (Severe acute respiratory syndrome coronavirus 2), `Cc1c(C)n(Cc2ccccc2)c2ncnc(N)c12` has a documented Number of isomers bound of 1

Measured on SARS-CoV-2 NSP3 macrodomain (Mac1) (Severe acute respiratory syndrome coronavirus 2), `Cc1c[nH]c2ncnc(NCC3(O)CCC3)c12` has a documented Number of isomers bound of 1

Measured on SARS-CoV-2 NSP3 macrodomain (Mac1) (Severe acute respiratory syndrome coronavirus 2), Cc1ccc(CC(CO)Nc2ncnc3[nH]ccc23)cc1 (stereo not shown) has a documented Number of isomers bound of 2

Measured on SARS-CoV-2 NSP3 macrodomain (Mac1) (Severe acute respiratory syndrome coronavirus 2), OC(c1ccccc1)C1CCCN1c1ncnc2[nH]ccc12 (stereo not shown) has a documented Number of isomers bound of 1

Measured on SARS-CoV-2 NSP3 macrodomain (Mac1) (Severe acute respiratory syndrome coronavirus 2), `CCC(CC)(CO)Nc1ncnc2[nH]ccc12` has a documented Number of isomers bound of 1
